Taken from patent US20210087206A1.

assayTarget: ALK (G1202R) (Homo sapiens, UniProt Q9UM73, G1202R)
Construct: purchased Reaction Biology Corporation
Sequence (Q9UM73 19-1620 G1202R): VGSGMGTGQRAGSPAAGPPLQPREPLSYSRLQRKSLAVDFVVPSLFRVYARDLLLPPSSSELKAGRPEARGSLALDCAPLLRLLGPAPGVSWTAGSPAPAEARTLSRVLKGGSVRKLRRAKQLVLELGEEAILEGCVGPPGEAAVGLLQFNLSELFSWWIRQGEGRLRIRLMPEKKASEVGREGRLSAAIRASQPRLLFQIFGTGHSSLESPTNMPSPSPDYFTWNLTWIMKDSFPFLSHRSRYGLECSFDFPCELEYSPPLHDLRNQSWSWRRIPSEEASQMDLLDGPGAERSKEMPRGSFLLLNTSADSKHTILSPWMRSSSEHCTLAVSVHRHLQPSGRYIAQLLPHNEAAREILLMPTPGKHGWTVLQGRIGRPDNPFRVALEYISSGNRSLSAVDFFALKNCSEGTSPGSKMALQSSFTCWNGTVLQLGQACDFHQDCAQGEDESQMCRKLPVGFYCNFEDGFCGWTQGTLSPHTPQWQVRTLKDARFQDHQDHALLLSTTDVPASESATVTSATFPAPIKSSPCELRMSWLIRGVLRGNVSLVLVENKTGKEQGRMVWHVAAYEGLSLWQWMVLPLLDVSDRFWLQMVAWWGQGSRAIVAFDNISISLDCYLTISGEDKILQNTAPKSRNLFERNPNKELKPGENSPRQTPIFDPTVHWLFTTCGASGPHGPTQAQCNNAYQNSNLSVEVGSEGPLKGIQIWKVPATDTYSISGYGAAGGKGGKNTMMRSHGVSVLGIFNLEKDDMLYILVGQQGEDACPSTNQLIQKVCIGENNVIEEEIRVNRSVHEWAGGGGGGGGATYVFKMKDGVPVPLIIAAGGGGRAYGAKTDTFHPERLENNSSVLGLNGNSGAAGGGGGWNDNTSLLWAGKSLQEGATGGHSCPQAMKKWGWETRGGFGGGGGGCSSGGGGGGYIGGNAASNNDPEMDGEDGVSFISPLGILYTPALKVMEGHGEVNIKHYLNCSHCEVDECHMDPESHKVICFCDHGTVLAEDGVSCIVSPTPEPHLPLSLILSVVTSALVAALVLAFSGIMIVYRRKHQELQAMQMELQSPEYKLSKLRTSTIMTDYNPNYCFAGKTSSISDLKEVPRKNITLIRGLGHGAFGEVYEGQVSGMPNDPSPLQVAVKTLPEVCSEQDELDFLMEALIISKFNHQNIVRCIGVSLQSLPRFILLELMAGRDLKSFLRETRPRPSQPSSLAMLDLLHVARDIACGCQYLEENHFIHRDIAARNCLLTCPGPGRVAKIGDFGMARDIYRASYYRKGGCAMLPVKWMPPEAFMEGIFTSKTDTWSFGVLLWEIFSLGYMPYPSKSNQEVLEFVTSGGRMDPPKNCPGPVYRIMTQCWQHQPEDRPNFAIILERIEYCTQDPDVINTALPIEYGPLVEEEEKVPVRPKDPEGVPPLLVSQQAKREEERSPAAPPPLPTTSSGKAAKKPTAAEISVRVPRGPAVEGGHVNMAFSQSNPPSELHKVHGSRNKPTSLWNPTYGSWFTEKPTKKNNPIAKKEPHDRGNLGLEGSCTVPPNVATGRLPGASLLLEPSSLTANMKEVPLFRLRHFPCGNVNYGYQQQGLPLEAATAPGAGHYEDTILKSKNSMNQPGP
testDetails: Biochemical kinase assay (Reaction Biology, 33P ATP)
conditions: 10 μM ATP
Description: Biochemical Kinase Assay Method The biochemical kinase assay was performed at Reaction Biology Corporation (www.reactionbiology.com, Malvern, Pa.) following the procedures described in the reference (Anastassiadis T, et al Nat Biotechnol. 2011, 29, 1039). Specific kinase/substrate pairs along with required cofactors were prepared in reaction buffer; 20 mM Hepes pH 7.5, 10 mM MgC2, 1 mM EGTA, 0.02% Brij35, 0.02 mg/ml BSA, 0.1 mM Na3VO4, 2 mM DTT, 1% DMSO. […]
valueType: IC50 (nM)
A number alone suffices; assume nM.

Data request: Item C[C@@H]1COc2cn3ncc4c3nc2N1Cc1cc(F)cc(F)c1O[C@@H](C)CNC4=O [Compound 7] has what recorded IC50?
Data returned: 1.25

---

assayTarget: FGFR1 (Homo sapiens, UniProt P11362)
Construct: purchased Reaction Biology Corporation
testDetails: Biochemical kinase assay (Reaction Biology, 33P ATP)
conditions: 10 μM ATP
Method: Biochemical Kinase Assay Method The biochemical kinase assay was performed at Reaction Biology Corporation (www.reactionbiology.com, Malvern, Pa.) following the procedures described in the reference (Anastassiadis T, et al Nat Biotechnol. 2011, 29, 1039). Specific kinase/substrate pairs along with required cofactors were prepared in reaction buffer; 20 mM Hepes pH 7.5, 10 mM MgC2, 1 mM EGTA, 0.02% Brij35, 0.02 mg/ml BSA, 0.1 mM Na3VO4, 2 mM DTT, 1% DMSO. […]
valueType: IC50

Data request: Using the record for C[C@@H]1COc2cn3ncc4c3nc2N1Cc1cc(F)cc(F)c1O[C@@H](C)CNC4=O [Compound 7] , report its IC50.
Data returned: 53 nM

---

assayTarget: BaF3 EML4-ALK (Homo sapiens, UniProt Q9UM73)
Construct: The EML4-ALK gene (variant 1) was synthesized at GenScript and cloned into pCDH-CMV-MCS-EF1-Puro plasmid (System Biosciences, Inc); fused on or other part: EML4 N-terminal part (variant 1: exons 1-13, with the coiled-coil that oligomerises the fusion) fused to the intracellular part of ALK, which contains the kinase domain; Q9HC35 (Echinoderm microtubule-associated protein-like 4)
testDetails: Cell proliferation assay (CellTiter-Glo)
Format: cell-based
conditions: anti-cell proliferation, 72 hours
valueType: IC50 (nM)
Provide the reading as a plain figure in nM.

Reference set (3 entries):
{"columns": ["structureAsSmiles", "IC50 / nM"],
 "data": [
  ["C[C@H]1CNC(=O)c2cnn3cc4c(nc23)N(Cc2cc(F)cnc2O1)[C@H](Cc1ccccc1)CO4", 7240],
  ["C[C@@H]1COc2ncc(F)cc2CN2c3nc4c(cnn4cc3OC[C@H]2C2CC2)C(=O)N1", 89.1],
  ["C[C@@H]1COc2cn3ncc4c3nc2N1Cc1cc(F)cnc1O[C@H]1CC[C@H](C1)NC4=O", 15]
]}

Data request: Could you share which IC50 value was measured for `C[C@@H]1CCOc2cn3ncc4c3nc2N1Cc1cc(F)ccc1O[C@@H](C)CNC4=O` ?
Data returned: 6220

Data request: Quick check: IC50 of `C[C@@H]1COc2cn3ncc4c3nc2N(Cc2cc(F)ccc2O[C@@H](C)CNC4=O)C1` ?
Data returned: 4910

Data request: # get_value(readout='IC50', item= `C[C@@H]1COc2cn3ncc4c3nc2N1Cc1cc(F)cnc1O[C@@H]1CC[C@@H](C1)NC4=O` )
Data returned: 7.3

Data request: Using the record for `C[C@@H]1COc2ncc(F)cc2CN2c3nc4c(cnn4cc3OC[C@H]2C)C(=O)N1` , report its IC50.
Data returned: 13.9

Data request: # input compound: `C[C@H]1CNC(=O)c2cnn3cc4c(nc23)N(Cc2cc(F)ccc2O1)[C@H](COCc1ccccc1)CO4` ; wanted: its IC50
Data returned: 3170

Data request: // query IC50 value for entry `C[C@@H]1CCOc2ncc(F)cc2CN2c3nc4c(cnn4cc3OC[C@H]2C)C(=O)N1`
Data returned: 74.6

---

assayTarget: ROS1 (G2032R) (Homo sapiens, UniProt P08922, G2032R)
Construct: purchased Reaction Biology Corporation
Sequence (P08922 28-2347 G2032R): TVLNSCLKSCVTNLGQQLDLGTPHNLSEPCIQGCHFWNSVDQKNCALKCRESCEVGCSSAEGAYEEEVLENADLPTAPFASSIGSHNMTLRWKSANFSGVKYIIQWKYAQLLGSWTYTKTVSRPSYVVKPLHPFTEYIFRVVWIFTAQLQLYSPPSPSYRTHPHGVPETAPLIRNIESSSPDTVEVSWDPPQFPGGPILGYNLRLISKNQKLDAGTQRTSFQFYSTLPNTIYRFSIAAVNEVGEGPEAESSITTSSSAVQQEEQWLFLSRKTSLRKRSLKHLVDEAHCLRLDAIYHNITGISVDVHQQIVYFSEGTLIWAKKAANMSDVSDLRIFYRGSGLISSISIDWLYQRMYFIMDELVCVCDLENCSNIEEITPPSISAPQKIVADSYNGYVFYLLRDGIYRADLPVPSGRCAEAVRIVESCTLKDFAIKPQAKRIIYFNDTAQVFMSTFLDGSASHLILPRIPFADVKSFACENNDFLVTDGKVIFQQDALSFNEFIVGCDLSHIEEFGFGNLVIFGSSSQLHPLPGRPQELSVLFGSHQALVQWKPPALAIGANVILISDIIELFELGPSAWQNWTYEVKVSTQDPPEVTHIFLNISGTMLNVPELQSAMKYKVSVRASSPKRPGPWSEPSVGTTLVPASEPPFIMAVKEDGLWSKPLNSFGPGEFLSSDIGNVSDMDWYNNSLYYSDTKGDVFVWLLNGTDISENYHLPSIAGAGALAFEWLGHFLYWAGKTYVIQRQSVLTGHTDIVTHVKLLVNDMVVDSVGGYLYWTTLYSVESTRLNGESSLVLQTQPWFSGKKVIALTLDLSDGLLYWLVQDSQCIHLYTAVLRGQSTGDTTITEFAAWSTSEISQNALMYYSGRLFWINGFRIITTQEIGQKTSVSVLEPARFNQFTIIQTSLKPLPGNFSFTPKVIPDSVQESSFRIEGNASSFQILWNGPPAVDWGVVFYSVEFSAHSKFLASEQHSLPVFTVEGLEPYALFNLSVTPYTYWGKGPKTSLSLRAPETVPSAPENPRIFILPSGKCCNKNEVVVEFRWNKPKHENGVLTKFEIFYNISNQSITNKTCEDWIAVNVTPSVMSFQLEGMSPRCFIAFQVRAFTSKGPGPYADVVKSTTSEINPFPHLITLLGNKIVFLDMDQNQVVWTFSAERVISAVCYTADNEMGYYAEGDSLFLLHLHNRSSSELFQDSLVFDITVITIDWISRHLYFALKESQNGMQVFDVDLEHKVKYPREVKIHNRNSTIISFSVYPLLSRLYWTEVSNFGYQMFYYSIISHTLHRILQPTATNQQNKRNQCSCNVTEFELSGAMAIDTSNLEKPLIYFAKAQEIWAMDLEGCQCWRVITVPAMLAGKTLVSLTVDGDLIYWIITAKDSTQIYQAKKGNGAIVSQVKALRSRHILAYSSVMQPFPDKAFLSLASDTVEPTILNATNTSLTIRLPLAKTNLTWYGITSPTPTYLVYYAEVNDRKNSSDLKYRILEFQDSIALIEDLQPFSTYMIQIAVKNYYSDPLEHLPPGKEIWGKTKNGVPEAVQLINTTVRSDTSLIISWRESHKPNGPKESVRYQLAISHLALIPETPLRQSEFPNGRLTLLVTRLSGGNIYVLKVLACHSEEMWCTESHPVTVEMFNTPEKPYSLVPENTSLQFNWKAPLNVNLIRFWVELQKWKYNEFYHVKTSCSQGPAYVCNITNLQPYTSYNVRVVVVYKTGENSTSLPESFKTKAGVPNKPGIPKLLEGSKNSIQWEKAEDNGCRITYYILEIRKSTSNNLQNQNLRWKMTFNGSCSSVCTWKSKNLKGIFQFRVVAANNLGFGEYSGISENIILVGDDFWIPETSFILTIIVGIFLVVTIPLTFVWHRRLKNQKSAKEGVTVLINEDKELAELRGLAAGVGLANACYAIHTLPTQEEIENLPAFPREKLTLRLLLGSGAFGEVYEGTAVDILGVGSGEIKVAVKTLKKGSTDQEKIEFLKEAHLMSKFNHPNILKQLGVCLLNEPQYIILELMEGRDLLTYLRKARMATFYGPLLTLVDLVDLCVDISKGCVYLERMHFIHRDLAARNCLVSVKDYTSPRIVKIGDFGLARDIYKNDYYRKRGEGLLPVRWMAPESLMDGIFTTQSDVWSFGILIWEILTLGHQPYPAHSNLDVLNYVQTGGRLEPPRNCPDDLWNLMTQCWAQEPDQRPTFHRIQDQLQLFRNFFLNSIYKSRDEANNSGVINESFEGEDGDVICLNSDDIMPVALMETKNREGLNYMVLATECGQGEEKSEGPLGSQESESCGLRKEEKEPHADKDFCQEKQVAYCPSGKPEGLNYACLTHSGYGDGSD
testDetails: Biochemical kinase assay (Reaction Biology, 33P ATP)
conditions: 10 μM ATP
valueType: IC50 (nM)
Give just the numeric value; nM need not be written.

Data request: Sample `C[C@@H]1COc2cn3ncc4c3nc2N1Cc1cc(F)cc(F)c1O[C@@H](C)CNC4=O` — what was its IC50?
Data returned: 0.678

---

Quick list: pIC50 per entry.
Test system: KM12 (TPM3-TRKA)
testDetails: Cell proliferation assay (CellTiter-Glo)
Assay type: cell-based
conditions: Homo sapiens, anti-cell proliferation, 72 hours
pIC50: −log10 of the molar value.

{"columns": ["structureAsSmiles", "pIC50"],
 "data": [
  ["C[C@H]1COc2cn3ncc4c3nc2N1Cc1cc(F)ccc1OCCNC4=O", 7.57]
]}

Data request: // lookup pIC50 for `CC[C@@H]1COc2cn3ncc4c3nc2N1Cc1cc(F)ccc1O[C@@H](C)CNC4=O`
Data returned: 9.70

Data request: Please report the recorded pIC50 for `C[C@@H]1COc2cn3ncc4c3nc2N1Cc1cc(F)cnc1OCC1(CC1)NC4=O` .
Data returned: > 9.70

Data request: State the recorded pIC50 for this entry: `C[C@H]1CNC(=O)c2cnn3cc4c(nc23)N(Cc2cc(F)cnc2O1)C1(CCCC1)CO4`
Data returned: > 9.70

Data request: Form field: reported pIC50 of `C[C@@H]1CCOc2cn3ncc4c3nc2N1Cc1c(ccc(F)c1Cl)O[C@@H](C)CNC4=O`
Data returned: > 9.70

Data request: Field request: pIC50 | item: `C[C@H]1CNC(=O)c2cnn3cc4c(nc23)N(Cc2cc(F)ccc2O1)[C@H](COCc1ccccc1)CO4`
Data returned: 7.04

Data request: Item under review: `C[C@@H]1COc2ncc(F)cc2CN2c3nc4c(cnn4cc3OCC23CC3)C(=O)N1` . Reported pIC50?
Data returned: > 9.70

Data request: Data request, read-out pIC50, for `C[C@@H]1COc2cn3ncc4c3nc2N1Cc1cc(F)cnc1OCC1(CCCC1)NC4=O`
Data returned: > 9.70

---

Tested on: KM12 (TPM3-TRKA)
testDetails: Cell proliferation assay (CellTiter-Glo)
Type: cell-based
conditions: Homo sapiens, anti-cell proliferation, 72 hours
Known pIC50 of a selection of compounds
Give only the number. pIC50 is defined as minus log10 of concentration in molar units.

{"columns": ["compound", "testValue"],
 "data": [
  ["C[C@@H]1COc2ccc(F)cc2CN2c3nc4c(cnn4cc3OC[C@H]2C)C(=O)N1 [Compound 9]", 9.70]
]}

Field: next compound
Data request: I am curious: what pIC50 value has been reported for C[C@@H]1COc2ncc(F)cc2CN2C[C@@H](F)COc3cn4ncc(c4nc32)C(=O)N1 [Compound 94] ?
Data returned: 7.39

---

assayTarget: FGFR4 (Homo sapiens)
Construct: purchased Reaction Biology Corporation
Sequence (P22455 22-802): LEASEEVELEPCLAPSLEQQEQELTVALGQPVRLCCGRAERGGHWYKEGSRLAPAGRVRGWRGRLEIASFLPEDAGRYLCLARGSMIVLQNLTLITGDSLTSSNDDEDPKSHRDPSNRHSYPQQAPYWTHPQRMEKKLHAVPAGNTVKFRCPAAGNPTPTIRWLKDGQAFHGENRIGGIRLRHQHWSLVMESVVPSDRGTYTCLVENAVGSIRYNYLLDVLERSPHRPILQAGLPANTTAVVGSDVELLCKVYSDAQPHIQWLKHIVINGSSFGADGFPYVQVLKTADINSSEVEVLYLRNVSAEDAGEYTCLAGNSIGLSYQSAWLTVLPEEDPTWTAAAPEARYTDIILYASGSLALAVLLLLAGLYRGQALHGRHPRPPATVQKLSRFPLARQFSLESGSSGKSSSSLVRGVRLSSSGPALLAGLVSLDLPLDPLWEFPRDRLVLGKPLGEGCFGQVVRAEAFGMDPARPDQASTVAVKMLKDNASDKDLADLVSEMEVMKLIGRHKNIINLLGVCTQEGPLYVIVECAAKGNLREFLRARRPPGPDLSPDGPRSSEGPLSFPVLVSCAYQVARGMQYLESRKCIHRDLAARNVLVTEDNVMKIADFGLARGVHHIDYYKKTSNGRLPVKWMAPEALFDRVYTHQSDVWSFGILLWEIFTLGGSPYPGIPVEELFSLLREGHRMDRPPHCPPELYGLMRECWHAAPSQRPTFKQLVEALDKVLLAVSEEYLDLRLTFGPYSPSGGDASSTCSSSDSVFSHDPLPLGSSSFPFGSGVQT
testDetails: Biochemical kinase assay (Reaction Biology, 33P ATP)
conditions: 10 μM ATP
valueType: IC50 (nM)
Output spec: scalar in nM, unitless text.

Data request: // map `C[C@@H]1COc2cn3ncc4c3nc2N1Cc1cc(F)cc(F)c1O[C@@H](C)CNC4=O` to recorded IC50 (system: FGFR4 (Homo sapiens))
Data returned: 88.4

---

assayTarget: ALK (L1196M) (Homo sapiens, UniProt Q9UM73, L1196M)
Construct: purchased Reaction Biology Corporation
testDetails: Biochemical kinase assay (Reaction Biology, 33P ATP)
conditions: 10 μM ATP
valueType: IC50 (nM)
# number only, unit nM dropped from output

Data request: Find the recorded IC50 belonging to `C[C@@H]1COc2cn3ncc4c3nc2N1Cc1cc(F)cc(F)c1O[C@@H](C)CNC4=O` and report it.
Data returned: 0.358

---

assayTarget: BaF3 EML4-ALK (Homo sapiens)
Construct: The EML4-ALK gene (variant 1) was synthesized at GenScript and cloned into pCDH-CMV-MCS-EF1-Puro plasmid (System Biosciences, Inc); fused on or other part: EML4 N-terminal part (variant 1: exons 1-13, with the coiled-coil that oligomerises the fusion) fused to the intracellular part of ALK, which contains the kinase domain; Q9HC35 (Echinoderm microtubule-associated protein-like 4)
testDetails: Cell proliferation assay (CellTiter-Glo)
Type: cell-based
conditions: anti-cell proliferation, 72 hours
Each entry below carries its reported IC50.

Solved cases (2 shown):
{"columns": ["structureAsSmiles", "testValue"],
 "data": [
  ["C[C@H]1CNC(=O)c2cnn3cc4c(nc23)N(Cc2cc(F)ccc2O1)[C@@H](C)CO4", "> 10 µM"],
  ["C[C@H]1CNC(=O)c2cnn3cc4c(nc23)N(Cc2cc(F)cnc2O1)CC(F)(F)CO4", "> 10 µM"]
]}

We now examine a further molecule.
Data request: Query IC50 on BaF3 EML4-ALK (Homo sapiens) for `C[C@H]1CNC(=O)c2cnn3cc4c(nc23)N(Cc2cc(F)ccc2O1)[C@@H](C)CCO4`
Data returned: > 10 µM
